Target: T1, Recombinantly expressed fused calprotectin (His6-linker-S100A9-linker-S100A8), product code B-RCAL, BÜHLMANN … (human, UniProt P06702 1-114; P05109 1-93)
T1 chain: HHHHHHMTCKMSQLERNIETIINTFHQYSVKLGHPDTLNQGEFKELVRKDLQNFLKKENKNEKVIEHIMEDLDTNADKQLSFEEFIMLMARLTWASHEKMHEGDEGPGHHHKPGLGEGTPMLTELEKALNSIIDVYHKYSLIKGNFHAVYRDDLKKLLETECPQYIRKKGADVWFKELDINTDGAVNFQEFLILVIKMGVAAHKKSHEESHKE
Experiment: fluorescence polarization
Readout: Kd (nM)
Just the number please, in nM, no unit attached.

Would you kindly share the measured Kd for ACRTCPLFTCPSCG (not fully specified; cross-linked between cysteines (linker not named); N-terminal 5(6)-carboxyfluorescein; synthesised on rink amide AM resin) ?
89
